The origin of these recorded values is ChEMBL document CHEMBL1137005.

experiment: Binding affinity to […] channel diltiazem binding site
pIC50: −log10 of the molar value.
Threshold rule: pIC50 greater than or equal to 5 is 1.0; below that, 0.0.

pIC50 >= 5 for CS(=O)(=O)c1ccc2c(c1)C(=O)CC1(CCN(C(=O)N[C@@H]3CC[C@@H](c4ccccc4)C3)CC1)O2 (racemic) ?
0.0

pIC50 >= 5 for `O=C(CCc1ccccc1)N1CCC2(CCc3cc(F)ccc3O2)CC1` ?
1.0

pIC50 >= 5 for CS(=O)(=O)c1ccc2c(c1)C(=O)CC1(CCN(C(=O)N[C@H]3C[C@@H]3c3ccccc3)CC1)O2 (racemic) ?
0.0

pIC50 >= 5 for `CS(=O)(=O)c1ccc2c(c1)CCC1(CCN(C(=O)c3ccc(C(F)(F)F)cc3)CC1)O2` ?
0.0

pIC50 >= 5 for O=C1CC2(CCN(C(=O)NC3CCc4ccccc43)CC2)Oc2ccccc21 (racemic) ?
1.0

pIC50 >= 5 for `CS(=O)(=O)c1ccc2c(c1)CCC1(CCN(C(=O)N[C@H]3C[C@@H]3c3ccccc3)CC1)O2` ?
0.0

pIC50 >= 5 for `CS(=O)(=O)c1ccc2c(c1)CCC1(CCN(C(=O)Cc3ccc(Cl)cc3Cl)CC1)O2` ?
0.0

pIC50 >= 5 for O=C1CC2(CCN(C(=O)N[C@H]3C[C@@H]3c3ccccc3)CC2)Oc2ccc(-c3ccncc3)cc21 (racemic) ?
1.0

pIC50 >= 5 for `O=C(c1ccc(C(F)(F)F)cc1)N1CCC2(CCc3ccccc3O2)CC1` ?
1.0

pIC50 >= 5 for `O=C1CC2(CCN(C(=O)NC3CCc4ccccc4CC3)CC2)Oc2ccccc21` ?
1.0

pIC50 >= 5 for O=C(N[C@H]1C[C@@H]1c1ccccc1)N1CCC2(CCc3ccccc3O2)CC1 (racemic) ?
1.0

pIC50 >= 5 for `O=C1CC2(CCN(C(=O)N[C@H]3C[C@@H]3c3ccccc3)CC2)Oc2ccccc21` ?
0.0

pIC50 >= 5 for O=C(N[C@H]1C[C@@H]1c1ccccc1)N1CCC2(CC1)CC(O)c1ncccc1O2 (relative stereo) ?
0.0

pIC50 >= 5 for O=C(N[C@H]1C[C@@H]1c1ccccc1)N1CCC2(CCc3cc(F)ccc3O2)CC1 (racemic) ?
1.0
